Reported Potency (pM), IL-17-driven IL-6 production in HS27 cells is given for each of the following binders.
target: human IL-17A (human, UniProt Q16552 24-155); assay: cell-based or functional assay
Sequence (Q16552 24-155): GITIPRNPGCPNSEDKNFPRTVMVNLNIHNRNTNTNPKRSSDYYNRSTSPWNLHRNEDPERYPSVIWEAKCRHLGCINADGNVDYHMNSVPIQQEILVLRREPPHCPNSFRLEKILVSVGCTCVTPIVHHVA
The response must be a number in pM with no trailing unit.

Return reported Potency (pM), IL-17-driven IL-6 production in HS27 cells; argument: IL17-h5C5.19 (antibody, V domains shown, IgG; constant regions not specified) VH: QVQLQQSGAELVRPGASVKLSCKALGYTFTDYEFHWVKQTPVHGLEWIGVIHPGNGGTAYNQNFRDKATLTADKSSSTAYMELSSLTSEDSGVYYCTRFLTYEGYFDYWGQGTALTVSS VL: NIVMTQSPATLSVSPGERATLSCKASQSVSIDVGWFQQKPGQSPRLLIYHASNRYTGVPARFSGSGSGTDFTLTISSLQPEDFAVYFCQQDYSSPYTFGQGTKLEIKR
11

How about IL17-h5C5.8 (antibody, V domains shown, IgG; constant regions not specified; also called h5C5.8 (VH.1-Vk.1a)) VH: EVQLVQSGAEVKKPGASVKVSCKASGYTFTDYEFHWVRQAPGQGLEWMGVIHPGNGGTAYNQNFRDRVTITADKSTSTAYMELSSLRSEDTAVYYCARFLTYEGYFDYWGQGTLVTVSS VL: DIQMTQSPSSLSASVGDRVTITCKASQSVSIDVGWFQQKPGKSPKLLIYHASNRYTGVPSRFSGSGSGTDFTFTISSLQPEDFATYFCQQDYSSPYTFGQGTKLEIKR ?
17

Cool, now IL17-h5C5.20 (antibody, V domains shown, IgG; constant regions not specified) VH: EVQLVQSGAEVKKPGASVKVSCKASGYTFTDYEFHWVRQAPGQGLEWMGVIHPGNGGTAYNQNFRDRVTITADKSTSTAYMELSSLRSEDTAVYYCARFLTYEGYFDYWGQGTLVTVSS VL: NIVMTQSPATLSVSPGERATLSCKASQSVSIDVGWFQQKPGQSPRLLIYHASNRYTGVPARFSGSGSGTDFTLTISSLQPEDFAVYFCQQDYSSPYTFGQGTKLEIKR
12

# iterate: IL17-h5C5.15 (antibody, V domains shown, IgG; constant regions not specified; also called h5C5.15 (VH.1b-Vk.3a)) VH: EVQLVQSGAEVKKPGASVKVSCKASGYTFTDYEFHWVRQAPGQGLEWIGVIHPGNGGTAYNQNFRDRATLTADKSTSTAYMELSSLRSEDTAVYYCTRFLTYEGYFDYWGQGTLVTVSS VL: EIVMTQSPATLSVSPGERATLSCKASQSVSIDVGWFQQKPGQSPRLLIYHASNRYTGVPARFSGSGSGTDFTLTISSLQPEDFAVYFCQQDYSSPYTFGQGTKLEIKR
13

Proceed to IL17-h5C5.3 (antibody, V domains shown, IgG; constant regions not specified) VH: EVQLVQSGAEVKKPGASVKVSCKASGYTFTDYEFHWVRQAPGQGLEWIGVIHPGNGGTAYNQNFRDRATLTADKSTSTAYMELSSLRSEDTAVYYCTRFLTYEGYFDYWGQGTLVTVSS VL: NIVMTQTPKFLLVSPGDRVTITCKASQSVSIDVGWFQQKPGQSPKLLIYHASNRYTGVPDRFTGSGYGTDFTFTVNTVQAEDLAVYFCQQDYSSPYTFGGGTKLELKR
5

***
Report Potency (pM), IL-17-driven IL-6 production in HS27 cells for IL17-h5C5.9 (antibody, V domains shown, IgG; constant regions not specified; also called h5C5.9 (VH.1b-Vk.1a)) VH: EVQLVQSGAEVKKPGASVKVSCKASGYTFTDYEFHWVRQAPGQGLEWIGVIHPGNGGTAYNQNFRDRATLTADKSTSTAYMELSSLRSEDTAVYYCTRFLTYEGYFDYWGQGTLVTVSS VL: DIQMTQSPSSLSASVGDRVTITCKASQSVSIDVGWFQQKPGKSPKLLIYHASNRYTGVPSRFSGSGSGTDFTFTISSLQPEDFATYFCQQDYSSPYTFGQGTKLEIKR please.
14

Follow-up item: IL17-h5C5.21 (antibody, V domains shown, IgG; constant regions not specified; also called h5C5.21 (VH.1b-Vk.3c)) VH: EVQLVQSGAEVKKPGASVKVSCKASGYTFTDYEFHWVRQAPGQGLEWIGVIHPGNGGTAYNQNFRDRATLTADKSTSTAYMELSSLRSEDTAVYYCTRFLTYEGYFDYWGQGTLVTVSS VL: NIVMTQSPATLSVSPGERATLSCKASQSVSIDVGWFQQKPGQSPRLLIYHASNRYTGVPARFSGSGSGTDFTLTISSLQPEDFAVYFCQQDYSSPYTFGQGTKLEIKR
9

Then what about the binder m5C5.hIgG1 (antibody, V domains shown) VH: QVQLQQSGAELVRPGASVKLSCKALGYTFTDYEFHWVKQTPVHGLEWIGVIHPGNGGTAYNQNFRDKATLTADKSSSTAYMELSSLTSEDSGVYYCTRFLTYEGYFDYWGQGTALTVSS VL: NIVMTQTPKFLLVSPGDRVTITCKASQSVSIDVGWFQQKPGQSPKLLIYHASNRYTGVPDRFTGSGYGTDFTFTVNTVQAEDLAVYFCQQDYSSPYTFGGGTKLELKR ?
11

Another binder: IL17-h5C5.2 (antibody, V domains shown, IgG; constant regions not specified) VH: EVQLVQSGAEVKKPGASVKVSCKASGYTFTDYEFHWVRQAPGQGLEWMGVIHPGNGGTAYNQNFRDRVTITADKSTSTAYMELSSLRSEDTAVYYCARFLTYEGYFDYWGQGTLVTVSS VL: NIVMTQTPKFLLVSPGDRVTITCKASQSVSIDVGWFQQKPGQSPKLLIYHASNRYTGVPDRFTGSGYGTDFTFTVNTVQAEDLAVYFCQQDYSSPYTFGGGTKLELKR
6

Okay, and IL17-h5C5.14 (antibody, V domains shown, IgG; constant regions not specified; also called h5C5.14 (VH.1-Vk.3a)) VH: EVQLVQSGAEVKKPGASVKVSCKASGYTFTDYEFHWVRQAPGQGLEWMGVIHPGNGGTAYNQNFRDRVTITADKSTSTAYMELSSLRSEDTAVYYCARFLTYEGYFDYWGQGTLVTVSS VL: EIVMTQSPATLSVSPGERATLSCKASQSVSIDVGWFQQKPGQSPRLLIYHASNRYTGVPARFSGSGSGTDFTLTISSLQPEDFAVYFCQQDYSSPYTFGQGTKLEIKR ?
18

// repeat for IL17-h5C5.11 (antibody, V domains shown, IgG; constant regions not specified) VH: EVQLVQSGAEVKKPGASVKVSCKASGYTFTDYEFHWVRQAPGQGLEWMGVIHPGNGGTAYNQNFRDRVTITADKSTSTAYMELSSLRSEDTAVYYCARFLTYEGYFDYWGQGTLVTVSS VL: EIVMTQSPATLSVSPGERATLSCKASQSVSIDVGWYQQKPGQAPRLLIYHASNRYTGIPARFSGSGSGTDFTLTISSLQPEDFAVYYCQQDYSSPYTFGQGTKLEIKR and report
115
